- Test system: M14
- assayText: NCI tumour cell line growth inhibition, 48 h
Activity calls are given as the source filed them. No stated cut-off is given here; in the data, active = GI50 up to about 1.1 µM and inactive = higher.
valueType: GI50

Completed entries (count: 3):
molecule: COc1cc([C@@H]2c3cc4c(cc3[C@@H](c3c(O)cc(O)c5c3O[C@H](c3ccc(O)c(O)c3)[C@@H](O)C5)[C@H]3COC(=O)[C@H]23)OCO4)cc(OC)c1OC
valueType: GI50
result: 25.1 µM (inactive)
--
molecule: COc1ccc(/C(C#N)=C(/N)SCc2ccccc2Cl)cc1
valueType: GI50
result: 14.2 µM (inactive)
--
molecule: Clc1cc2nnn(C3CCCCO3)c2cc1Cl (stereo not given)
valueType: GI50
result: > 100 µM (inactive)

Input: Notebook: pull reported GI50 for M14, entry "N=c1n(C(=O)N2CCCC2)c2cc(Cl)ccc2n1C1=NCCN1"
Output: 59.6 µM (inactive)

Input: Same lookup for COc1nc2c(c(=O)[nH]1)N=C(c1ccccc1)CC(c1ccccc1)N2 (stereo not given) , please.
Output: 34.3 µM (inactive)

Attribution: ChEMBL document CHEMBL1201862
